- test context: basic group
measured metric: pKa
Could you keep your reply to the number by itself?

Observe how each entry below is paired with its result.
compound	measured metric	test result
CCCCCCCCOCCN(C)C	pKa	8.87
CNCC[S-]	pKa	10.8
COc1cc(C)nc(NN)n1	pKa	6.2

Request: Sample NCCc1ccc(O)c(O)c1 — what was its pKa?
Result: 8.89

Request: Sample C[C@H]1[C@@H](N)[C@@H](C)[C@@H]([NH3+])[C@@H](C)[C@H]1N — what was its pKa?
Result: 6.73

Request: Sample CCSC(=O)c1ccc(C)cc1 — what was its pKa?
Result: -4.2

Request: Sample CCN(CC)CCSC — what was its pKa?
Result: 9.62

Request: Sample Cn1ncc2c(NC(C)(C)CC(C)(C)C)ncnc21 — what was its pKa?
Result: 3.96

Request: Sample NCc1ccncc1 — what was its pKa?
Result: 8.3

Request: Sample Cc1cscn1 — what was its pKa?
Result: 3.14
